src = paper PMC2662044

# MEASURED ON: Kv1.5 (Homo sapiens)
# TEST DESCRIPTION: Kv1.5 inhibition, whole-cell patch-clamp, currents recorded from MEL-C88 cells
# Type: cell-based
METRIC: IC50
Reply with the number, then its unit.

Lab note: need IC50 with Kv1.5 (Homo sapiens) for entry COc1c2ccoc2c(OCCCCOc2ccccc2)c2oc(=O)cc(C)c12 , please look it up. 0.28 µM

Same question, c1ccc(OCCCCOc2ccnc3ccccc23)cc1 this time 3.5 µM

Same question, O=C1c2ccccc2C(=O)c2c(OCCCCOc3ccccc3)cccc21 this time 10 µM

Same question, COc1cccc2c(=O)c3ccccc3n(CCCCOc3ccccc3)c12 this time 0.45 µM

---

Consider the following compounds; for each one, report its pIC50.
# MEASURED ON: Kv1.3 (Mus musculus)
# Sequence (P16390 whole entry): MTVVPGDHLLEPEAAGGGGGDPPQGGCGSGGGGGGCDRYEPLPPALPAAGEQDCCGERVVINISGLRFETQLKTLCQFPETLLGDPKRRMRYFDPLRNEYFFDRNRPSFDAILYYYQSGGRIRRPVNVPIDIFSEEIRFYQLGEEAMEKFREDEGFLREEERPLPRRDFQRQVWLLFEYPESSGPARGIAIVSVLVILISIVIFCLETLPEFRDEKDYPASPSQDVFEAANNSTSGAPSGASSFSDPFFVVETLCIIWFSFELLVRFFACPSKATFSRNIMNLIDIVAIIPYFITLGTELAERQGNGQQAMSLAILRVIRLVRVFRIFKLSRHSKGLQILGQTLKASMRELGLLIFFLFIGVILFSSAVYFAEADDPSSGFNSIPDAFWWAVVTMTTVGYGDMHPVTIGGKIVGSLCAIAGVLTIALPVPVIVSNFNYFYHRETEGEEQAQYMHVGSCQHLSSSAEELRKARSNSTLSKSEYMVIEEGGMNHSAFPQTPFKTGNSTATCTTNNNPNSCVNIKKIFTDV
# Assay type: cell-based
# MEASUREMENT CONTEXT: IC50 Kv1.3, text
pIC50: −log10 of the molar value.

Item under review: c1ccc(OCCCCOc2cccc3ccccc23)cc1 [Compound 16, 1-(4-Phenoxybutoxy)naphthalene] . Reported pIC50? < 5.00

Same question, c1ccc(OCCCCOc2cc3ccccc3c3ccccc23)cc1 [Compound 26, 9-(4-Phenoxybutoxy)phenanthrene] this time < 5.00

Same question, c1ccc(OCCCCOc2ccccc2)cc1 [Compound 15, 1,1'[1,4-Butanediyl(oxy)]bis-benzene] this time < 5.00

---

Consider the following compounds; for each one, report its Selectivity IC50 (Kv1.5)/IC50 (Kv1.3).
# MEASURED ON: UniProt P22460
# TEST DESCRIPTION: Kv1.5 inhibition, whole-cell patch-clamp, currents recorded from MEL-C88 cells
# Type: cell-based
# MEASUREMENT CONTEXT: Table 1
Enter the number alone.

Lab note: need Selectivity IC50 (Kv1.5)/IC50 (Kv1.3) with UniProt P22460 for entry COc1c2occc2c(OC)c2c(OCCCCOc3ccccc3)cc(=O)oc12 [Compound 23] , please look it up. 1.89

Same question, COc1cc2nc3occc3c(OCCCCOc3ccccc3)c2cc1OC [Compound 34] this time 3.2

Same question, COc1cccc2c(=O)c3ccccc3n(CCCCOc3ccccc3)c12 [Compound 28] this time 2.73

Same question, S=c1ccc2c(OCCCCOc3ccccc3)c3ccoc3cc2o1 [Compound 73] this time 22

Same question, Cc1cc(=O)c2c(OCCCCOc3ccccc3)c3ccoc3cc2o1 [Compound 36] this time 1.33

Same question, COc1c2occc2c(OCCCCOc2ccccc2)c2c(=O)cc(C)oc12 [Compound 37] this time 1.67

Same question, O=C1c2ccccc2C(=O)c2c(OCCCCOc3ccccc3)cccc21 [Compound 25, 1-(4-Phenoxybutoxy)anthraquinone] this time 1.43

Same question, O=c1cc(OCCCCOc2ccccc2)c2ccccc2o1 [Compound 21] this time 1.69

Same question, O=c1ccc2c(OCCCCOc3ccccc3)cccc2o1 [Compound 42] this time 3.47

Same question, COc1c2ccoc2c(OCCCCOc2ccccc2)c2oc(=O)cc(C)c12 [Compound 63] this time 0.88

---

# MEASURED ON: Kv1.5 (Homo sapiens)
# TEST DESCRIPTION: Kv1.5 inhibition, whole-cell patch-clamp, currents recorded from MEL-C88 cells
# Assay type: cell-based
METRIC: Times more potent on Kv1.5 than on Kv1.3

>>> df
                                   molecule           result
0  S=c1ccc2c(OCCCCOc3ccccc3)c3ccoc3cc2o1 [Compound 73]         22 times
1  Cc1cc(=O)c2c(OCCCCOc3ccccc3)c3c(cc2o1)OCO3 [Compound 56]  roughly 3 times
2  c1ccc(OCCCCOc2ccnc3ccccc23)cc1 [Compound 17, 4-(4-Phenoxybutoxy)quinoline]  roughly 3 times
3  COc1c2ccoc2c(OCCCCOc2ccccc2)c2oc(=O)cc(C)c12 [Compound 63]  roughly 3 times

---

# MEASURED ON: Kv1.5 (Homo sapiens, UniProt P22460)
# Sequence (P22460 whole entry): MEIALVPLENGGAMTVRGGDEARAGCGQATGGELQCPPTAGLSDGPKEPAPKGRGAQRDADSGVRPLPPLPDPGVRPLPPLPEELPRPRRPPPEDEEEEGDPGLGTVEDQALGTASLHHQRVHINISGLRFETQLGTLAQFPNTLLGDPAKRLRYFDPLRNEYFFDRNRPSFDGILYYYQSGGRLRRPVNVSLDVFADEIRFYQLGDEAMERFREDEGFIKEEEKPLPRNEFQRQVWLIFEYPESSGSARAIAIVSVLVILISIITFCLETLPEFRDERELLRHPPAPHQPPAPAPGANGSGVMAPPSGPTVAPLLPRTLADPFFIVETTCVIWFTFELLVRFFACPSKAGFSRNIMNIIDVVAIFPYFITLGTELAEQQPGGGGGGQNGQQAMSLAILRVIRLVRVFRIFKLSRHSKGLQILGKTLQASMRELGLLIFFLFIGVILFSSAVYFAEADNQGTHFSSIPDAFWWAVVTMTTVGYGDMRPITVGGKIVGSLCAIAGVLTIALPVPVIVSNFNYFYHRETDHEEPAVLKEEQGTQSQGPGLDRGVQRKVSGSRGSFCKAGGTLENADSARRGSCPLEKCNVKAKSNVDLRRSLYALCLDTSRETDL
# TEST DESCRIPTION: Kv1.5 inhibition, whole-cell patch-clamp, currents recorded from MEL-C88 cells
# Format: cell-based
Consider the following compounds; for each one, report its IC50.
Numbers only; they are read as µM.

Lab note: need IC50 with Kv1.5 (Homo sapiens, UniProt P22460) for entry Cc1cc(=O)c2c(OCCCCOc3ccccc3)c3ccoc3cc2o1 , please look it up. 0.31

Same question, O=c1cc(OCCCCOc2ccccc2)c2ccccc2o1 this time 1.5

---

# MEASURED ON: Kv1.5 (Homo sapiens)
# TEST DESCRIPTION: Kv1.5 inhibition, whole-cell patch-clamp, currents recorded from MEL-C88 cells
# Format: cell-based
Consider the following molecules; for each one, report its IC50.
Numbers only; they are read as nM.

Item under review: COc1c2occc2c(OC)c2c(OCCCCOc3ccccc3)cc(=O)oc12 [Compound 23] . Reported IC50? 850

Same question, COc1c2occc2c(OCCCCOc2ccccc2)c2c(=O)cc(C)oc12 [Compound 37] this time 2500

Same question, COc1cc2nc3occc3c(OCCCCOc3ccccc3)c2cc1OC [Compound 34] this time 480

Same question, O=c1ccc2c(OCCCCOc3ccccc3)cccc2o1 [Compound 42] this time 520

Same question, S=c1ccc2c(OCCCCOc3ccccc3)c3ccoc3cc2o1 [Compound 73] this time 380
